Values from patent US20250059164A1

Exercise: state measured DC50 for each of the molecules provided.
- MEASUREMENT_TARGET: IRAK4 (Homo sapiens, UniProt Q9NWZ3)
- Construct: endogenous in cells; host or cells: OCI-LY10
- Sequence (Q9NWZ3 whole entry): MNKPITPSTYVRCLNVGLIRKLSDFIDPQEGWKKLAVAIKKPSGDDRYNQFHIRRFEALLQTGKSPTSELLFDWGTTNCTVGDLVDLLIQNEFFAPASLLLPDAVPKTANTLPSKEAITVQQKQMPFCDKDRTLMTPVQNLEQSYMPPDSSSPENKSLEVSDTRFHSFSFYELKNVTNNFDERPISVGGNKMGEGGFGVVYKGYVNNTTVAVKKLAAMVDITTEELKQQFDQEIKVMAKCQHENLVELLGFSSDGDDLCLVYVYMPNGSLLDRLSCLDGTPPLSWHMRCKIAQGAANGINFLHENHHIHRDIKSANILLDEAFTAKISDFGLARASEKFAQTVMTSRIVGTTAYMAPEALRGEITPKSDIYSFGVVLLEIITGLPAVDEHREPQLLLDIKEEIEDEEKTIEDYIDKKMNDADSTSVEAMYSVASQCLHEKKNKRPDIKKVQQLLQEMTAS
- ASSAY_SUMMARY: IRAK4 MSD degradation in OCI-LY10
- Type: cell-based
- EXPERIMENTAL_CONDITIONS: OCI-LY10 cells, 24 hrs, Meso Scale Discovery

(Q) Provide DC50 value for the following molecule: Cn1nc([C@H]2CCC(=O)NC2=O)c2cccc([C@@H]3CCN(C[C@H]4CC[C@H](n5cc6cc(NC(=O)c7cncc(C#N)c7)c(C(C)(C)O)cc6n5)CC4)CC3(F)F)c21 (single isomer, unassigned)
(A) < 10 nM

(Q) Tell us which DC50 value is on record for "O=C1CCN(c2cncc3c(N4CC(O)(CN5CCN(C[C@H]6CC[C@H](n7cc(NC(=O)c8cnn9ccc(N%10C[C@H]%11C[C@@H]%10CO%11)nc89)c(C(F)F)n7)CC6)CC5)C4)cccc23)C(=O)N1"
(A) < 10 nM

(Q) Input COc1cc2nc([C@H]3CC[C@H](CN4CCC5(CCN(c6cccc7c6n(C)c(=O)n7C6CCC(=O)NC6=O)CC5)C(F)(F)C4)CC3)cn2cc1NC(=O)c1cncc(C#N)c1 (some centres unmarked) , output reported DC50.
(A) > 200 nM

(Q) Supply recorded DC50 for Cc1nn(C2CCC(=O)NC2=O)c2ccc(F)c(N3CC(CN4CCN(C[C@H]5CC[C@H](n6cc(NC(=O)c7cnn8ccc(N9C[C@H]%10C[C@@H]9CO%10)nc78)c(C(F)F)n6)CC5)CC4)C3)c12 (some centres unmarked) here.
(A) < 10 nM

(Q) Report DC50 for Cn1c(=O)n(C2CCC(=O)NC2=O)c2cccc([C@@H]3CCN(C[C@H]4CC[C@H](c5nc6ccc(NC(=O)c7cncc(C(F)(F)F)n7)cc6o5)CC4)C[C@H]3F)c21 (some centres unmarked)
(A) > 200 nM

====

- MEASUREMENT_TARGET: IRAK4 (Homo sapiens, UniProt Q9NWZ3)
- Construct: endogenous in cells; host or cells: OCI-LY10
- ASSAY_SUMMARY: IRAK4 MSD degradation in OCI-LY10
- Type: cell-based
- EXPERIMENTAL_CONDITIONS: OCI-LY10 cells, 24 hrs, Meso Scale Discovery
Could you please report measured DC50 for the items listed next?

(Q) Give DC50 for the following compound: CN(C[C@H]1CC[C@H](c2nc3cc(C(C)(C)O)c(NC(=O)c4cccc(C(F)(F)F)n4)cc3s2)CC1)[C@H]1CCN(c2cccc3c2n(C)c(=O)n3C2CCC(=O)NC2=O)C[C@@H]1F (some centres unmarked)
(A) 10 to 100 nM

(Q) Name the recorded DC50 of the compound listed here: COc1nc(NC(=O)c2cccc(C(F)F)n2)cc2cn([C@H]3CC[C@H](CN4CC[C@H](c5cccc6c5n(C)c(=O)n6C5CCC(=O)NC5=O)C(F)(F)C4)CC3)nc12 (some centres unmarked)
(A) 10 to 100 nM

(Q) Consider the compound Cn1c(=O)n(C2CCC(=O)NC2=O)c2cccc([C@@H]3CCN(C[C@H]4CC[C@H](n5cc6cc(NC(=O)c7cncc(C(F)(F)F)n7)c(C(F)F)cc6n5)CC4)C[C@H]3F)c21 (some centres unmarked) and give its recorded DC50.
(A) < 10 nM

(Q) Fill in reported DC50 for this entry: Cn1c(=O)n(C2CCC(=O)NC2=O)c2cccc(N3CCC4(CCN(C[C@H]5CC[C@H](c6nc7cc(C(C)(C)O)c(NC(=O)c8cncc(C#N)c8)cc7s6)CC5)CC4(F)F)CC3)c21 (some centres unmarked)
(A) 100 to 200 nM

(Q) Please give measured DC50 of the following entry: CN(C[C@H]1CC[C@H](c2nc3cc(C(C)(C)O)c(NC(=O)c4cncc(C(F)(F)F)n4)cc3o2)CC1)[C@H]1CCN(c2cccc3c2n(C)c(=O)n3C2CCC(=O)NC2=O)C[C@@H]1F (single isomer, unassigned)
(A) < 10 nM

====

- MEASUREMENT_TARGET: IRAK4 (Homo sapiens, UniProt Q9NWZ3)
- Construct: endogenous in cells; host or cells: OCI-LY10
- ASSAY_SUMMARY: IRAK4 MSD degradation in OCI-LY10
- Assay type: cell-based
- EXPERIMENTAL_CONDITIONS: OCI-LY10 cells, 24 hrs, Meso Scale Discovery
MEASURED_QUANTITY: DC50

(Q) Quote DC50 reported for Cn1c(=O)n(C2CCC(=O)NC2=O)c2cccc(C#CCN3CCN(C[C@H]4CC[C@H](n5cc(NC(=O)c6cnn7ccc(N8C[C@H]9C[C@@H]8CO9)nc67)c(C(F)F)n5)CC4)[C@H](C(F)(F)F)C3)c21 (some centres unmarked) [I-345] please.
(A) 10 to 100 nM

(Q) In one line, give reported DC50 of the entry Cn1c(=O)n(C2CCC(=O)NC2=O)c2cccc([C@@H]3CCN(C[C@H]4CC[C@H](c5nc6cc(C(C)(C)O)c(NC(=O)c7cccc(C(F)(F)F)c7)cc6s5)CC4)C[C@H]3F)c21 (some centres unmarked) [I-169] .
(A) < 10 nM

(Q) Hello, please tell me recorded DC50 for this one: CN(C[C@H]1CC[C@H](n2cc(NC(=O)c3cnn4ccc(N5CCCC5)nc34)c(C(F)F)c2)CC1)[C@@H]1CCN(c2cccc3c2n(C)c(=O)n3C2CCC(=O)NC2=O)C[C@@H]1F (some centres unmarked) [I-23]
(A) < 10 nM

(Q) Return reported DC50. Input compound: CN(C[C@H]1C[C@H](n2cc(NC(=O)c3cnn4ccc(N5C[C@H]6C[C@@H]5CO6)nc34)c(C(F)F)n2)C1)[C@@H]1CCN(c2cccc3c2n(C)c(=O)n3C2CCC(=O)NC2=O)C[C@@H]1F (single isomer, unassigned) [I-59]
(A) < 10 nM

(Q) For the compound CN(C[C@H]1CC[C@H](c2nc3cc(C(C)(C)O)c(NC(=O)c4cccc(C(F)(F)F)n4)cc3o2)CC1)[C@@H]1CCN(c2cccc3c2n(C)c(=O)n3C2CCC(=O)NC2=O)C[C@@H]1F (some centres unmarked) [I-139] , report DC50.
(A) < 10 nM

====

Consider the following compounds; for each one, report its DC50.
- MEASUREMENT_TARGET: IRAK4 (Homo sapiens)
- Construct: endogenous in cells; host or cells: OCI-LY10
- ASSAY_SUMMARY: IRAK4 MSD degradation in OCI-LY10
- Format: cell-based
- EXPERIMENTAL_CONDITIONS: OCI-LY10 cells, 24 hrs, Meso Scale Discovery

(Q) Report DC50 on IRAK4 (Homo sapiens) for this entry: Cn1c(=O)n(C2CCC(=O)NC2=O)c2ccc(F)c([C@@H]3CCN(C[C@H]4CC[C@H](n5cc6cc(NC(=O)c7cncc(C(F)(F)F)n7)ccc6n5)CC4)C[C@H]3F)c21 (single isomer, unassigned)
(A) < 10 nM

(Q) Look up and report DC50, with IRAK4 (Homo sapiens) as system, for Cc1cc(C(=O)Nc2ccc3nn([C@H]4CC[C@H](CN5CC[C@@H](c6cccc7c6n(C)c(=O)n7C6CCC(=O)NC6=O)[C@H](F)C5)CC4)cc3c2)nc(C(F)(F)F)c1 (stereo partly drawn)
(A) > 200 nM

(Q) Please report the measured DC50 for Cc1nn(C2CCC(=O)NC2=O)c2cccc(N3CC(CO[C@@H]4CCN(C[C@H]5CC[C@H](n6cc(NC(=O)c7cnn8ccc(N9C[C@H]%10C[C@@H]9CO%10)nc78)c(C(F)F)n6)CC5)C[C@@H]4F)C3)c12 (stereo partly drawn) tested on IRAK4 (Homo sapiens).
(A) < 10 nM

(Q) Give IRAK4 (Homo sapiens) DC50 for the following compound: COc1ccc2c(c1[C@H]1CCN(C[C@H]3CC[C@H](n4cc5cc(NC(=O)c6cncc(C(F)(F)F)n6)ccc5n4)CC3)C[C@@H]1F)n(C)c(=O)n2C1CCC(=O)NC1=O (stereo partly drawn)
(A) < 10 nM

(Q) // fetch DC50; item: Cn1c(=O)n([C@@H]2CCC(=O)NC2=O)c2cccc([C@@H]3CCN(C[C@H]4CC[C@H](n5cc6cc(NC(=O)c7cncc(C(F)(F)F)n7)ccc6n5)CC4)C[C@H]3F)c21 (single isomer, unassigned) ; system: IRAK4 (Homo sapiens)
(A) < 10 nM

(Q) Using IRAK4 (Homo sapiens) as the test system, report measured DC50 of Cn1c(=O)n(C2CCC(=O)NC2=O)c2cccc([C@@H]3CCN(C[C@H]4CC[C@H](n5cc6cc(C(=O)Nc7cccc(C(F)(F)F)n7)ccc6n5)CC4)C[C@H]3F)c21 (stereo partly drawn) .
(A) < 10 nM

(Q) Recall the reported DC50 of O=C1CCN(c2cncc3c(N4CC(CO[C@H]5CCN(C[C@H]6CC[C@H](n7cc(NC(=O)c8cnn9ccc(N%10C[C@H]%11C[C@@H]%10CO%11)nc89)c(C(F)F)n7)CC6)C[C@@H]5F)C4)cccc23)C(=O)N1 (single isomer, unassigned) on IRAK4 (Homo sapiens) and write it down.
(A) 10 to 100 nM

(Q) Under IRAK4 (Homo sapiens), report DC50 for Cn1c(=O)n(C2CCC(=O)NC2=O)c2cccc([C@@H]3CCN(C[C@H]4CC[C@H](n5cc6cc(NC(=O)c7cncc(C8CC8)n7)ncc6n5)CC4)C[C@H]3F)c21 (stereo partly drawn)
(A) < 10 nM

(Q) // fetch DC50 for Cn1c(=O)n(C2CCC(=O)NC2=O)c2cccc([C@@H]3CCN(C[C@H]4CC[C@H](n5cc6cc(NC(=O)c7cccc(C(F)(F)F)n7)ccc6n5)CC4)C[C@H]3F)c21 (single isomer, unassigned) ; system: IRAK4 (Homo sapiens)
(A) < 10 nM
